# Tested on: NCI-H3122
# Assay Notes: relative viability (nuclei count vs DMSO), 5 days (fraction); higher = more cells survive
# Test Context: first compound 8 µM
Quantity Measured: relative viability
// no unit string in output, number only

Q. Any idea what its relative viability is? The compound is C=C1C(=O)O[C@@H](CCCCCCCC)[C@@H]1C(=O)O [C-75] + CS(=O)(=O)CCNCc1ccc(-c2ccc3ncnc(Nc4ccc(OCc5cccc(F)c5)c(Cl)c4)c3c2)o1 [Lapatinib] (partner 2 µM)
A. 1.02

Q. Let us now turn to C=C1C(=O)O[C@@H](CCCCCCCC)[C@@H]1C(=O)O [C-75] + C[C@]1(O)C[C@@H](c2nc(-c3ccc4ccc(-c5ccccc5)nc4c3)c3c(N)nccn32)C1 [Linsitinib] (partner 1 µM)
A. 1.1

Q. Same read-out for C=C1C(=O)O[C@@H](CCCCCCCC)[C@@H]1C(=O)O [C-75] + N=C(N)NC(=N)NCCc1ccccc1 [Phenformin] (partner 250 µM) ?
A. 0.408

Value source: the supplement of paper PMC10307832
